biological target: human CD33 on primary human monocyte-derived dendritic cells (human, UniProt P20138 18-364); test: cell-based or functional assay
Sequence (P20138 18-364): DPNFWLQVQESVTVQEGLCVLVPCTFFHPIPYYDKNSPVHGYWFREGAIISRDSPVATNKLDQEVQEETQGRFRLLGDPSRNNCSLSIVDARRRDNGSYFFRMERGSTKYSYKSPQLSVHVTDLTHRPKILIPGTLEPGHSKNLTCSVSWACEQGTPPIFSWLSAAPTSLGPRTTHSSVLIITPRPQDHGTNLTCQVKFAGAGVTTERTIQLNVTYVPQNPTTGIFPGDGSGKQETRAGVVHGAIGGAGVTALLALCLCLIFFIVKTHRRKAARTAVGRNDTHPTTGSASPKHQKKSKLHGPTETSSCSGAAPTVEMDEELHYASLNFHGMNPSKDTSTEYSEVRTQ
endpoint-label: Receptor downregulation (% remaining at 0.16 µg/mL antibody) (%)

• AB-64.1.11 (antibody, V domains shown, Variant of AB-64.1) VH: QVQLVQSGAEVKKPGASVKISCKASGYTFTDYNLHWVRQAPGQGLEWIGFIYPSNRITGYAQKFQGRATLTVDQSTSTAYMELSSLRSEDTAVYYCARSDVDYFDYWGQGTLLTVSS VL: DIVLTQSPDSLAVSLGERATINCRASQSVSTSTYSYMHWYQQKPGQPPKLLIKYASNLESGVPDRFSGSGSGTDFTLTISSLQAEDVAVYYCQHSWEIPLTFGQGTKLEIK = 38.6
• AB-64.1.13 (antibody, V domains shown, Variant of AB-64.1) VH: QVQLVQSGAEVKKPGASVKISCKASGYTFTDYNLHWVRQAPGQGLEWIGFIYPSNVITGYAQKFQGRATLTVDTSTSTAYMELSSLRSEDTAVYYCARSDVDYFDYWGQGTLLTVSS VL: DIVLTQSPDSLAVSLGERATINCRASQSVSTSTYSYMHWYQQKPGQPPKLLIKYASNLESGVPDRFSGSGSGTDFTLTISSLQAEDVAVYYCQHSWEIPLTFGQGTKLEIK = 35.9
• AB-64.1.8 (antibody, V domains shown, Variant of AB-64.1) VH: QVQLVQSGAEVKKPGASVKISCKASGYTFTDYNLHWVRQAPGQGLEWIGFIYPSNQITGYAQKFQGRATLTVDNSASTAYMELSSLRSEDTAVYYCARSDVDYFDYWGQGTLLTVSS VL: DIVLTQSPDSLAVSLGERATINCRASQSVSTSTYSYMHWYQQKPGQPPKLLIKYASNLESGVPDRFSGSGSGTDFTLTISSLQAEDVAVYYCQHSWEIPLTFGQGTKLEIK = 32.7
